Every entry's value here was drawn from patent US11946041B2.

- target_system: CCR4 (Homo sapiens, UniProt P51679)
- Construct: host or cells: CHO-K1
- Sequence (P51679 1-360): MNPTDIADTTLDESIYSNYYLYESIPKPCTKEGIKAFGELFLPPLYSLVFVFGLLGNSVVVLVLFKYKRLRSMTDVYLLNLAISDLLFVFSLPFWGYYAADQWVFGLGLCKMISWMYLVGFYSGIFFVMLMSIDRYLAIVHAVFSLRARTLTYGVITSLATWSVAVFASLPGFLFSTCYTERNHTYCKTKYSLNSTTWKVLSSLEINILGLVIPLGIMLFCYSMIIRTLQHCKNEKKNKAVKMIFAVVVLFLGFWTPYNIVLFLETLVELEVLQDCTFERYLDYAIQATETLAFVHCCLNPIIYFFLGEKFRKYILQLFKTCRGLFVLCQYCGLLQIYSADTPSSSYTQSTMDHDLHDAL
- assay_procedure: PathHunter eXpress CCR4 CHO-K1 β-Arrestin GPCR Assay, antagonist format with CCL22
- Format: cell-based
- details: 10 nM CCL22, 0.008 uM
attribute_measured: Raw Data
Output spec: single numeric token, no unit.

Let me know recorded Raw Data for ACQLTCLPPPRQPGCA [24-15-00-N001, bicyclic peptide ligand, TATA scaffold, from CCR4 cell-based selection] , thanks. 159966

Output measured Raw Data for this item: ACRAVHSLRCLTTCA [24-17-00-N001, bicyclic peptide ligand, TATA scaffold, from CCR4 cell-based selection] 143078

Provide Raw Data value for the following sequence: ACQTLCNTAEDIRCA [24-16-00-N001, bicyclic peptide ligand, TBMB scaffold, from CCR4 cell-based selection] 142089

Give recorded Raw Data. ACLSCARHGNQCA [24-12-00-N001, bicyclic peptide ligand, TATA scaffold, from CCR4 cell-based selection] 193071

State its Raw Data: ACQLTCLTPARQPGCA [24-14-00-N001, bicyclic peptide ligand, TATA scaffold, from CCR4 cell-based selection] 156373

Give reported Raw Data value for ACPLMSSVNCTAGCA [24-13-00-N001, bicyclic peptide ligand, TBMB scaffold, from CCR4 cell-based selection] 201223

Write down Raw Data measured for item ACLNGCRNTNSQCA [24-11-00-N001, bicyclic peptide ligand, TATA scaffold, from CCR4 cell-based selection] 146640
